B1: Poly(rC)-binding protein 1, residues 278 to 350; numbered along this chain, Q15365 (parent)
chain: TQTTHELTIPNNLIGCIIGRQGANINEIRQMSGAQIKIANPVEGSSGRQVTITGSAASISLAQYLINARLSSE

variants of: B1; experiment: abundance fitness (aPCA) (normalised: wild type 0, dead -1); higher = more abundant; growth selection in yeast, the domain comes from the species named; settings: Homo sapiens
Assign class by abundance fitness: not lower than -0.3 means fulfilled; lower than -0.3 means not fulfilled.

> print(dat)
    variant.designation  discrete.label
 1                 G33V   not fulfilled
 2                 I28R   not fulfilled
 3                 N40L       fulfilled
 4                 P41V       fulfilled
 5                 S72Y       fulfilled
 6                 E27M       fulfilled
 7                 I59K   not fulfilled
 8                 A57G       fulfilled
 9                  L7M       fulfilled
10                 G15V   not fulfilled
11                 M31D   not fulfilled
12                 I38D   not fulfilled
13                  H5M       fulfilled
14                 S32G   not fulfilled
15                 E73A       fulfilled
16                  E6R       fulfilled
17                 V42T       fulfilled
18                 I18S   not fulfilled
19                 R20H       fulfilled
20                 Q30F       fulfilled
21                 N40G       fulfilled
22                 G33L   not fulfilled
23                 A62F   not fulfilled
24                  L7E   not fulfilled
25                 R48H       fulfilled
26                 N40S       fulfilled
27                  T4L       fulfilled
28                 I25D   not fulfilled
29                 G19W   not fulfilled
30                 L65Y       fulfilled
31                 P41M       fulfilled
32                 S72C       fulfilled
33                 A23K       fulfilled
34                 T53M       fulfilled
35                 L65Q   not fulfilled
36                 A56T       fulfilled
37                  H5P   not fulfilled
38                 A34F   not fulfilled
39                 A56R       fulfilled
